meta.source: paper PMC12014896

molecular target: SARS-CoV-2 spike RBD (Wuhan-Hu-1) (Severe acute respiratory syndrome …, UniProt P0DTC2); assay: SPR
Assay Metric: pKd
Answers are plain numbers, as −log10 of the molar value.

Some solved cases for reference:
Binder	pKd
COVIC-28 (antibody, V domains shown) VH: QVQLVQSGAEVKKPGASVKVSCKASGYTFTSYYMHWVRQAPGQGLEWMGIINSSGGSTSYAQKFQGRVTMTRDTSTSTVYMELSSLRSEDTAVYYCARPPRNYYDRSGYYQRAEYFQHWGQGTLVTVSS VL: DIQLTQSPSSLSASVGDRVTITCQASQDISNYLNWYQQRPGKAPKLLIYDASNLETGVPSRFSGSGSGTDFTFTISSLQPEDIATYYCQQYDNPPLTFGGGTKLEIK	7.91
COVIC-152 (antibody, V domains shown) VH: QVQLQESGPGLVKPSQTLSLTCTVSGGSISSYGYYWSWIRQHPGKGLEWIGYIYYSGSTYYNPSLKSRVTMSVDTSKNQLSLRLNSVSAADTAVYYCARDFGGNSNYFDYWGQGTLVTVSS VL: AIQLTQSPSSLSASVGDRVTITCRASQGISSALAWYQQKPGKAPNLLIYDASSLESGVPSRFSGSGSGTDFTLTISSLQPEDFATYYCQQFNSSPLTFGGGTKVEIKR	8.52
COVIC-54 (antibody, V domains shown) VH: QVQLQESGGGLVQAGGSLRLSCAASGRTFSEYAMGWFRQAPGKEREFVATISWSGGSTYYTDSVKGRFTISRDNAKNTVYLQMNSLKPDDTAVYYCAAAGLGTVVSEWDYDYDYWGQGTQVTVSS	6.61
COVIC-164 (antibody, V domains shown) VH: EVQLVESGGGLIQPGGSLRLSCAAAGLTVSSNYMNWVRQVPGKGLEWVSVIYSGGSTYYADSVKGRFTISRDNSKNTLYLQMNSLRAEDTAVYYCARDLGTLGMDVWGQGTTVTVSS VL: DIQLTQSPSFLSASVGDRVTITCWASQGISTYLAWYQQKPGKAPKLLIYAASTLQSGVPSRFSGSGSGTEFTLTISSLQPEDFATYYCQQLNSYLPTFGQGTKVEIKR	8.65
COVIC-167 (antibody, V domains shown) VH: EVQLVESGGGLIQPGGSLRLSCAASGLTVSSNYMSWVRQAPGKGLEWVSIIYSGGSTYYADSVKGRFTISRDNSKNTLYLQMNSLRAEDTAVYYCARLGGYYYYGMDVWGQGTTVTVSS VL: DIQMTQSPSSLSASVGERVTITCQASQDIRNYLNWYQKKPGKAPKLLIYDSSNLETGVPSRFSGGGSGTDFTFTISSLQPEDIATYYCQQYDNLPITFGQGTRLEIKR	8.73

API: the following record is the query input.
Qu. May I ask what pKd has been recorded for COVIC-148 (antibody, V domains shown) VH: QVQLVQSGAEVKKPGASVKVSCKASGYTFTSYDINWVRQATGQGLEWMGWMNPNSGNTGYAQKFQGRVTMTRDTSINTAYMELSSLRSEDTAVYFCARGGRYCSDVTCYSGEPFDYWGQGTLVTVSS VL: EIMLTQSPDFQSVTPKEKVTITCRASQSIGSSLHWYQQKPDQSPKLLIKFASQSISGVPSRFSGSGSGTDFTLTINSLEAEDAAAYYCHQSSSLPHTFGPGTKVEIKR ?
Ans. 8.73
